Origin of the recorded values: patent US4791139A

Kindly state pest or weed control at 500 ppm for each of the entries shown.
# System: Musca domestica (houseflies - adults)
# TEST DETAILS: Knockdown test, houseflies - adults (MD/KD), Cotton wool/sugar
# Type: in vivo
# CONDITIONS: 500 ppm, 4 hours, read-out: MD/KD grading of knockdown

Fc1cc(C(CCCc2cccc(Oc3ccccc3)c2)C(F)(F)F)cc(F)c1OC(F)(F)F (racemic)    < 50%
CCOc1ccc(C(CCCc2c(F)c(F)c(F)c(F)c2F)C(F)(F)F)cc1 (racemic)    50 to 79%
Fc1cc(C(=CC=Cc2cccc(Oc3ccccc3)c2)C(F)(F)F)cc(F)c1OC(F)(F)F    < 50%
Fc1ccc(CCC=C(c2ccc(OC(F)(F)F)cc2)C(F)F)cc1Oc1ccccc1    80 to 100%
OC(CCCc1cccc(Oc2ccccc2)c1)(c1ccc(OC(F)(F)F)cc1)C(F)(F)F (racemic)    < 50%

For each listed entry, give its pest or weed control at 500 ppm.
1. CCOc1ccc(/C(=C\CCc2cccc(Oc3ccccc3)c2)C(F)(F)F)cc1
2. FC(F)(F)C(CCCc1cccc(Oc2ccccc2)c1)c1ccc(OC(F)(F)C(F)(F)Br)cc1 (racemic)
3. CCOc1ccc(C(CCC(C)c2cccc(Oc3ccccc3)c2)C(F)(F)F)cc1 (racemic)

**Result**
["80 to 100%", "< 50%", "80 to 100%"]

----------
Kindly state mortality at 250 ppm for each of the entries shown.
# System: Tetranychus urticae (spider mites - ova)
# TEST DETAILS: Contact test, spider mites - ova (TUe), French bean leaf
# Format: in vivo
# CONDITIONS: 144 h, 250 ppm, 6 days, read-out: TUE grading of mortality

Fc1ccc(C(=CCCc2cccc(Oc3ccccc3)c2)C(F)(F)F)cc1    < 50%
CCOc1ccc(C(CCCc2ccc(F)c(Oc3ccccc3)c2)C(F)(F)F)cc1 (racemic)    50 to 79%
CCOc1ccc(C(CC=Cc2ccc(F)c(Oc3ccccc3)c2)C(F)(F)F)cc1 (centres unmarked)    < 50%

For each listed entry, give its mortality at 250 ppm.
1. FC(F)(F)Oc1ccc(C(F)(CCCc2cccc(Oc3ccccc3)c2)C(F)(F)F)cc1 (racemic)
2. FC(F)(F)Oc1ccc(C(=CCCc2cccc(Oc3ccccc3)c2)C(F)(F)F)cc1
3. CC(C)(C)c1ccc(C(CCCc2cccc(Oc3ccccc3)c2)C(F)(F)F)cc1 (racemic)

**Result**
["80 to 100%", "80 to 100%", "< 50%"]

----------
# Test system: Tetranychus urticae (spider mites - ova)
# TEST DETAILS: Contact test, spider mites - ova (TUe), French bean leaf
# Assay type: in vivo
# CONDITIONS: 144 h, 250 ppm, 6 days, read-out: TUE grading of mortality
# Experimental: The activity of the Product was determined using a variety of insect pests. The Product was used in the form of liquid preparations containing from 100 to 500 parts per million (ppm) by weight of the Product. […] The mortality of the pests was then assessed at periods usually varying from one to seven days after the treatment.
Kindly state mortality at 250 ppm for each of the entries shown.

These solved cases illustrate the format of a correct answer.
Fc1ccc(C(CCCc2cccc(Oc3ccccc3)c2)C(F)(F)F)cc1 (racemic)    < 50%
FC(F)(F)Oc1ccc(C(Cl)(CCCc2cccc(Oc3ccccc3)c2)C(F)(F)F)cc1 (racemic)    < 50%
CC(C)(C)c1ccc(C(=CCCc2cccc(Oc3ccccc3)c2)C(F)(F)F)cc1    < 50%
FC(F)(F)Oc1ccc(C(CCCc2cccc(Oc3ccccc3)c2)C(F)(F)F)cc1 (racemic)    80 to 100%

mortality at 250 ppm for Tetranychus urticae (spider mites - ova) with input FC(F)(F)C(=CCCc1cccc(Oc2ccccc2)c1)c1ccc(C(F)(F)F)cc1 equals < 50%
